- System tested: T1, cynomolgus DLL4 expressed on CHO cells (cynomolgus, UniProt Q9NR61 27-685 (human entry))
- T1 construct: also called cDLL4; CHO-cDLL4
- T1 chain: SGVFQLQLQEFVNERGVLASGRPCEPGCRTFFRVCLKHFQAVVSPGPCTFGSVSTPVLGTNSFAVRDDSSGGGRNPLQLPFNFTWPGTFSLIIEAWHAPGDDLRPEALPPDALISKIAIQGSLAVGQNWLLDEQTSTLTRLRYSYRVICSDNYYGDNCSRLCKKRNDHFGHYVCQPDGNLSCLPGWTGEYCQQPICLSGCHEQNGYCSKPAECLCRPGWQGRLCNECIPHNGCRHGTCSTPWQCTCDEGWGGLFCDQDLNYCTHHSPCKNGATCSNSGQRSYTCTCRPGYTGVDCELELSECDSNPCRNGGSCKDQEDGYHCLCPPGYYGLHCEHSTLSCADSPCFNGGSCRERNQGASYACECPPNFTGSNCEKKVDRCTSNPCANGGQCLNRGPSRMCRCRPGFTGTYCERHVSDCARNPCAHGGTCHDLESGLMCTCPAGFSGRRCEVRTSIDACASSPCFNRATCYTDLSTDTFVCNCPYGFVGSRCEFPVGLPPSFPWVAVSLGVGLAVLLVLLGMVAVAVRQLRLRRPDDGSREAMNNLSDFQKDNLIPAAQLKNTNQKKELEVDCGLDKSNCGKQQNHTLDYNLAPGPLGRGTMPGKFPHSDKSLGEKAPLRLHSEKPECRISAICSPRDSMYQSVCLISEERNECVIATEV
- Protocol description: FACS; summary table, column taken as cDLL4
Measurement name: EC50 (nM)
The reply should be a number in nM, with the unit left off.

Reference set (3 entries):
Binder	Unit spec	EC50
DLLBII129D08 (VHH, not shown: small tags and cut ends) VHH: EVQLVESGGGLVQAGGSLRLSCAASGRTFSSYAMAWYRQAPGKEREYVAAIRWSGGTAYYADSVQGRFTISRDNAKNTVYLQMNSLKPEDTAVYYCANRAPDTRLEPYLYDYWGQGTQVTVSS	nM	3.8
DLLBII133A09 (VHH, not shown: small tags and cut ends) VHH: EVQLVESGGGLVQPGGSLRLSCAASGFTFGSYDMSWVRRSPGKGPEWVSAINSGGGSTYYADYVKGRFTISRDNAKNTLYLQMNSLKPEDTAVYYCAADRYIWARQGEYWGAYAYDYWGQGTQVTVSS	nM	2.3
DLLBII101G08 (VHH, not shown: small tags and cut ends, parent VHH; also called 101G08 (wt); 101G8) VHH: EVQLVESGGGLVQAGGSLRLSCAASGRTFSSYAMAWFRQAPGKEREFVAAIRWSGGTAYYADSVQGRFTISRDNAKNTVYLQMNSLKPEDTAVYYCANRAADTRLGPYEYDYWGQGTQVTVSS	nM	11.2

Next up:
[Q] Returns the measured EC50 for the input binder. Input: DLLBII015 (VHH, not shown: small tags and cut ends) VHH: EVQLVESGGGLVQPGGSLRLSCAASGFTIGSYDMSWVRRSPGKGPEWVSAINSGGGSTYYADYVKGRFTISRDNAKNTLYLQMNSLKPEDTAVYYCAADRYIWARQGEYWGAYAYDYWGQGTQVTVSS
[A] 5.1
